# assayed.target: ERK protein (Mus musculus)
# protocol.details: TdF (Temperature Dependence Fluorescence, thermal shift) assay for ERK
# Assay type: binding
# setup.conditions: 3 μM ERK protein, uncertainty estimated ±50%, read-out: Kd TdF
pKd: −log10 of the molar value.

[
  {
    "chemical.string": "CN(C)c1ccc(CN2CCC[C@@H](NC(=O)c3ccc4[nH]nc(-c5ccc6c(c5)CCO6)c4c3)C2)cc1",
    "pKd": 6.00
  },
  {
    "chemical.string": "COc1cccc(F)c1CN1CCC[C@@H](NC(=O)c2ccc3[nH]nc(-c4ccc(N)c(OC(C)=O)c4)c3c2)C1",
    "pKd": 8.19
  },
  {
    "chemical.string": "COc1cccc(F)c1CN1CCC[C@@H](NC(=O)c2ccc3[nH]nc(-c4cccc(NC(C)=O)c4)c3c2)C1",
    "pKd": 8.86
  },
  {
    "chemical.string": "Cc1cc(-c2n[nH]c3ccc(C(=O)N[C@@H]4CCCN(Cc5cc6ccccc6n5C)C4)cc23)ccn1",
    "pKd": 9.68
  },
  {
    "chemical.string": "COc1cccc(F)c1CN1CCC[C@@H](NC(=O)c2ccc3[nH]nc(-c4ccc(S(C)(=O)=O)cc4)c3c2)C1",
    "pKd": 8.86
  },
  {
    "chemical.string": "COc1cccc(F)c1CN1CCC[C@@H](NC(=O)c2ccc3[nH]nc(-c4ccc5oc(C)nc5c4)c3c2)C1",
    "pKd": 9.22
  }
]

###

# assayed.target: fully phosphorylated, mouse aERK2 enzyme (Mus musculus (Mouse), UniProt P63085)
# Sequence (P63085 whole entry): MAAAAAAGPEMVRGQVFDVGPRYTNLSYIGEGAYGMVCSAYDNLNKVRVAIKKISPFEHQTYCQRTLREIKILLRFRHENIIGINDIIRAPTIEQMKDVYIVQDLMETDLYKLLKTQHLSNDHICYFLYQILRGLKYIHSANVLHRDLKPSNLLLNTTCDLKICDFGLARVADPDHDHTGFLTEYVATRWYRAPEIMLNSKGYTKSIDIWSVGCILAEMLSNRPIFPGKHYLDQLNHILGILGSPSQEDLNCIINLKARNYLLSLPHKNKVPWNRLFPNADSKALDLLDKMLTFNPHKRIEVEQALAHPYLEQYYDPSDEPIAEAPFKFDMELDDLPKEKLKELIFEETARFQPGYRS
# protocol.details: Active ERK2 (aERK) IMAP-FP assay, condition 2
# Type: biochemical
# setup.conditions: aERK assay condition 2, 30 uM ATP; read-out: aERK IC50

[
  {
    "chemical.string": "COc1cccc(F)c1CN1CCC[C@@H](NC(=O)c2ccc3[nH]nc(C4=CCOCC4)c3c2)C1",
    "IC50 / nM": 1.3
  },
  {
    "chemical.string": "COc1ccnc(NC(=O)[C@@H]2CC[C@@H](NC(=O)c3ccc4[nH]nc(-c5ccnc(C)c5)c4c3)CN2Cc2c(F)cccc2OC)c1",
    "IC50 / nM": 50.2
  },
  {
    "chemical.string": "COc1cccc(F)c1CN1C[C@H](NC(=O)c2ccc3[nH]nc(-c4ccnc(C)c4)c3c2)CC[C@H]1C(=O)Nc1ccc(C)nc1",
    "IC50 / nM": 6.7
  },
  {
    "chemical.string": "COc1cccc(F)c1CN1C[C@H](NC(=O)c2ccc3[nH]nc(-c4ccnc(C)c4)c3c2)CC[C@H]1C(=O)Nc1cccc(F)c1",
    "IC50 / nM": 15.2
  },
  {
    "chemical.string": "COc1cccc(F)c1CN1C[C@H](NC(=O)c2ccc3[nH]nc(-c4ccnc(C)c4)c3c2)CC[C@H]1C(=O)NC1CC1",
    "IC50 / nM": 3.4
  },
  {
    "chemical.string": "COc1ccc(NC(=O)[C@@H]2CC[C@@H](NC(=O)c3ccc4[nH]nc(-c5ccnc(C)c5)c4c3)CN2Cc2c(F)cccc2OC)cc1",
    "IC50 / nM": 11.6
  },
  {
    "chemical.string": "COc1cccc(F)c1CN1C[C@H](NC(=O)c2ccc3[nH]nc(-c4ccnc(C)c4)c3c2)CC[C@H]1C(=O)Nc1ccc(F)cc1",
    "IC50 / nM": 23.4
  },
  {
    "chemical.string": "COc1cccc(F)c1CN1C[C@H](NC(=O)c2ccc3[nH]nc(-c4ccnc(C)c4)c3c2)CC[C@H]1C(=O)NC1(C)CC1",
    "IC50 / nM": 4.7
  }
]
